Each entry below lists one item and its recorded IC50 value.
- ASSAY TARGET: UniProt:P21453
- PROTOCOL DESCRIPTION: S1P1 binding assay: inhibition of [33P]-S1P binding to membrane fraction of HEK-293 cells transferred with the human Edg-1 (S1P1) gene
- MEASUREMENT CONTEXT: [33P]-S1P 0.1 nM, human Edg-1 (S1P1) HEK-293 membrane fraction, 1 h at 30° C.; read-out: IC50 (concentration at which binding in the absence of the test compound was inhibited by 50%)
- Method: The membrane fraction was obtained by treating the cells with a solubilizing buffer (1 mM Tris/HCl, pH 7.2) for 10 minutes on ice, centrifuging at 1000×g for 5 minutes to remove insoluble fractions, and then centrifuging at 40000×g for 30 minutes at 4° C. […] The same procedure was carried out in the absence of the test compound, and the amount (B) of [^33P]-S1P bound was calculated. […]

Here are 3 compounds together with their reported answers.
- CCn1c(Oc2ccc(Cl)c(C)c2)nnc1[C@@H](C)NS(=O)(=O)c1ccc(Cl)c(Cl)c1: ≤ 35 nM
- CCn1c(Oc2cccc(N3CCN(C(C)C)CC3)c2)nnc1[C@@H](C)NS(=O)(=O)c1ccc(Cl)c(Cl)c1: ≤ 10 nM
- CCn1c(Oc2ccc3cc[nH]c3c2)nnc1[C@@H](C)NS(=O)(=O)c1ccc2c(Cl)cccc2c1: ≤ 10 nM

Here is another compound to look at.
Input line: Look up UniProt:P21453 data: IC50 of CCn1c(Oc2cccc(N3CCC3)c2)nnc1[C@@H](C)NS(=O)(=O)c1ccc(Cl)c(Cl)c1 , then report it.
Output line: ≤ 10 nM

---

inhibition at 10 µM values, listed per item
- ASSAY TARGET: human Edg-1 (S1P1) (Homo sapiens, UniProt P21453)
- Construct: expressed in transfected cells; host or cells: HEK-293
- Sequence (P21453 whole entry): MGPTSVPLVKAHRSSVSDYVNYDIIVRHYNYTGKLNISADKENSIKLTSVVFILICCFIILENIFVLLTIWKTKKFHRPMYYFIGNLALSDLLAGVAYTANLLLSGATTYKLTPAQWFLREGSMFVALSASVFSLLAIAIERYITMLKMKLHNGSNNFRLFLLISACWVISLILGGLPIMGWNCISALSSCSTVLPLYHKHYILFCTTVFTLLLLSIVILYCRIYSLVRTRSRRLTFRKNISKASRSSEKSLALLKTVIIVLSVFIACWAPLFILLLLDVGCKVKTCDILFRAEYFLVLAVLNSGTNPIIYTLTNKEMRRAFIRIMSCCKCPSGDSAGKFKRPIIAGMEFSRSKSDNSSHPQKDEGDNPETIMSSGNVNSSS
- PROTOCOL DESCRIPTION: S1P1 binding assay: inhibition of [33P]-S1P binding to membrane fraction of HEK-293 cells transferred with the human Edg-1 (S1P1) gene
- MEASUREMENT CONTEXT: test compound 10 μM; inhibition of [33P]-S1P binding, membrane fraction
Number in %, nothing else.

Check out these entries, answers already filled in.
* CCn1c(Oc2cccc(N3CCN(C)CC3)c2)nnc1[C@@H](C)NS(=O)(=O)c1cc(C)ccc1C [Compound 537] | 96.7
* CCn1c(Oc2ccc3cc[nH]c3c2)nnc1[C@@H](C)NS(=O)(=O)c1cccc(OC(F)F)c1 [Compound 435] | 94.6

Consider the record given below.
Input line: Supply measured inhibition at 10 µM of CCn1c(Oc2cccc(N3CCN(C)CC3)c2)nnc1[C@@H](C)NS(=O)(=O)c1ccc(F)cc1C [Compound 613] in your reply.
Output line: 90.9

---

# IC50 annotations
- ASSAY TARGET: human Edg-1 (S1P1) (Homo sapiens, UniProt P21453)
- PROTOCOL DESCRIPTION: S1P1 binding assay: inhibition of [33P]-S1P binding to membrane fraction of HEK-293 cells transferred with the human Edg-1 (S1P1) gene
- MEASUREMENT CONTEXT: [33P]-S1P 0.1 nM, human Edg-1 (S1P1) HEK-293 membrane fraction, 1 h at 30° C.; read-out: IC50 (concentration at which binding in the absence of the test compound was inhibited by 50%)

Answered examples (2):
* CCn1c(Oc2ccc3cc[nH]c3c2)nnc1[C@@H](C)NS(=O)(=O)c1ccc(Cl)c(Cl)c1 | ≤ 35 nM
* CCn1c(Oc2ccc(OC)cc2)nnc1[C@@H](C)NS(=O)(=O)c1ccc2ccccc2c1 | ≤ 10 nM

Input line: Indicate its recorded IC50; the compound in question is CCn1c(Oc2ccc(OC)c(OC)c2)nnc1[C@@H](C)NS(=O)(=O)c1ccc(Cl)c(Cl)c1
Output line: ≤ 35 nM

Input line: Dear colleague, please send me the reported IC50 for CCn1c(Oc2ccc(F)cc2)nnc1[C@@H](C)NS(=O)(=O)c1ccc2ccccc2c1 when you can.
Output line: ≤ 35 nM
